tested on: HCT116 colorectal cancer cells; assay: HCT116 24 h IC50 and cell viability; format: cell-based, human
READOUT NAME: IC50
The reply must contain the numeric value and, after it, the unit.

Exercise: Identify IC50 associated with the molecule COc1ccc2c(c1)c1c(C)c3cnccc3c(C)c1n2CCCN
Solution: 2000 nM
